Field: Ki. Provide a value for each of the compounds that follow.
Target: Sigma intracellular receptor 2 (Rattus norvegicus)
Assay: Displacement of [3H]DTG from rat brain sigma2 receptor by PDSP assay
Numbers only, in nM.

Observe how each entry below is paired with its result.
CN(CCOc1cc(COc2ccccc2)on1)C1CCCCC1
18.7
CN(CCOc1cc(COc2cccc(F)c2)on1)C1CCCCC1
24.5
Clc1ccccc1OCc1cc(OC[C@@H]2CCCN2)no1
165
CN(CCOc1cc(COc2ccccc2)on1)C1CCCC1
73.7
Cc1cccc(OCc2cc(OC[C@@H]3CCCN3)no2)c1
341

Let us move to another entry and its Ki.
-- ask What measured Ki goes with "CN1CCC[C@H]1COc1cc(COc2cccc(Cl)c2)on1" ?
-- reply 371

###

Test: Cmax in Kun Ming mouse plasma at 40 mg/kg, po by LC-MS/MS analysis
Assay type: ADME, organism-based
Design: dose 40 mg/kg, route oral
property_measured: Cmax (ng/mL)
Give bare numbers, in ng/mL.

-- ask What measured Cmax goes with "CN(CCOc1cc(COc2ccccc2)on1)CC1CC1.Cl" ?
-- reply 193

###

Target: Sigma intracellular receptor 2 (Rattus norvegicus, UniProt Q5U3Y7)
Sequence (Q5U3Y7 whole entry): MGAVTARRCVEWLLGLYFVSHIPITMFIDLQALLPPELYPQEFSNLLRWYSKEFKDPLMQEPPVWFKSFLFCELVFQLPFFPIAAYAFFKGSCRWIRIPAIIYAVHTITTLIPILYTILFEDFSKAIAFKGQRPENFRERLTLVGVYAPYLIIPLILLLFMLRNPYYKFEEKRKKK
Assay: Displacement of [3H]DTG from rat brain sigma2 receptor by PDSP assay
Field: pKi. Provide a value for each of the compounds that follow.
One number for each entry, as −log10 of the molar value.

Observe how each entry below is paired with its result.
CN(CCOc1cc(COc2cccc(Cl)c2)on1)CC1CC1
6.91
CN(CCOc1cc(COc2ccccc2)on1)CC1CC1.Cl
6.65
FC(F)(F)c1ccc(OCc2cc(OC[C@@H]3CCCN3)no2)cc1
7.04
Fc1ccc(OCc2cc(OC[C@@H]3CCCN3)no2)cc1
6.33

-- ask What measured pKi goes with "c1ccc(SCc2cc(OC[C@@H]3CCCN3)no2)cc1" ?
-- reply 5.99

###

Target: Sigma non-opioid intracellular receptor 1 (Rattus norvegicus, UniProt Q9R0C9)
Sequence (Q9R0C9 whole entry): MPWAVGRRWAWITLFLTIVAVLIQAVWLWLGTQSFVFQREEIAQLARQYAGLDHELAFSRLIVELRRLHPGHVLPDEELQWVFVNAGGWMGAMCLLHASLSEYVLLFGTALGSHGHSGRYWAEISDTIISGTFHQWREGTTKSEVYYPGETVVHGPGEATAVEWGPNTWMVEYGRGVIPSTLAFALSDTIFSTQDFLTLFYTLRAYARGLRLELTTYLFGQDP
Assay: Displacement of [3H]-pentazocine from rat brain sigma1 receptor by PDSP assay
pKi: −log10 of the molar value.
Would you please tag the item met when its pKi is 8 or above, and not met when it is below?

Brc1cccc(OCc2cc(OC[C@@H]3CCCN3)no2)c1
met
c1ccc(SCc2cc(OC[C@@H]3CCCN3)no2)cc1
not met
CN1CCC[C@H]1COc1cc(COc2cccc(Cl)c2)on1
met
c1ccc(OCc2cc(N3CCCCC3)no2)cc1
not met
c1ccc(OCc2cc(OCC3CCNCC3)no2)cc1
not met
O=C(Nc1ccccc1)c1cc(OC[C@@H]2CCCN2)no1
not met
CN(CCOc1cc(COc2cccc(F)c2)on1)CC1CC1
met
Cl.Fc1cccc(OCc2cc(OC[C@@H]3CCCN3)no2)c1
met
CN1CCC[C@H]1COc1cc(COc2cccc(F)c2)on1
met
CN(CCOc1cc(COc2ccccc2)on1)C1CCC1
met

-- ask Does "Cc1cccc(OCc2cc(OC[C@@H]3CCCN3)no2)c1" have a reported pKi of at least 8?
-- reply met

Values were extracted from ChEMBL document CHEMBL4425114.
